Source listed as ChEMBL document CHEMBL1136827.

Entries below carry reported pKi on Sodium-dependent dopamine transporter (Rattus norvegicus, UniProt P23977).
Sequence (P23977 whole entry): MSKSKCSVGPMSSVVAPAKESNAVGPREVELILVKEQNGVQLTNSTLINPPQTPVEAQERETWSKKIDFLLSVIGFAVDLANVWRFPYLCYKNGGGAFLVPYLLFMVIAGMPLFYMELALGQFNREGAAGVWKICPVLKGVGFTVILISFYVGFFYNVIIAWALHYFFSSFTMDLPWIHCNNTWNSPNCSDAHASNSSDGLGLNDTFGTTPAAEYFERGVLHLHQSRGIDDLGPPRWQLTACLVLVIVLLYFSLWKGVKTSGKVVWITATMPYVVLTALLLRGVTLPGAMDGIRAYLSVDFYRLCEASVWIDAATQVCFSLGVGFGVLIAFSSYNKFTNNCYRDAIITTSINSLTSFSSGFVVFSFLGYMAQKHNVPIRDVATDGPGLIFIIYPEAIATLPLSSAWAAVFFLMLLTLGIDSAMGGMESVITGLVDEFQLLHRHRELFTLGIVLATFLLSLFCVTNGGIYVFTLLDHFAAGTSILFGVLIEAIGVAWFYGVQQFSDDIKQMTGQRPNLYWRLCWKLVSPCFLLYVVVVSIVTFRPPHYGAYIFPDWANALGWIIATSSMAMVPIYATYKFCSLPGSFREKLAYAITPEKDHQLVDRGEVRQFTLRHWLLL
Just so you know, pKi here is -log10 of the concentration in molar units; reply with that number alone.

Any idea what its pKi is? The compound is OC1CCCC1CN1CCN(CCOC(c2ccc(F)cc2)c2ccc(F)cc2)CC1 (stereo not given)
7.49

Any idea what its pKi is? The compound is `Fc1ccc(C(OCCN2CCN(CC3=Cc4ccccc4CC3)CC2)c2ccc(F)cc2)cc1`
8.19

Any idea what its pKi is? The compound is `COc1ccc2c(c1)CC[C@@H](CN1CCN(CCOC(c3ccccc3)c3ccccc3)CC1)[C@@H]2O`
7.40

Any idea what its pKi is? The compound is `O[C@H]1c2ccccc2CC[C@H]1CN1CCN(CCOC(c2ccc(F)cc2)c2ccc(F)cc2)CC1`
8.89

Any idea what its pKi is? The compound is `O[C@@H]1c2ccccc2CC[C@H]1CN1CCN(CCOC(c2ccccc2)c2ccccc2)CC1`
7.23
